test system: SK-MEL-5; test: NCI tumour cell line growth inhibition, 48 h
The source made the active and inactive calls. No stated cut-off is given here; in the data, active = GI50 up to about 1.1 µM and inactive = higher.
Outcomes: yes (1) for active, no (0) for inactive

1. CCSC1=N/C(=C\c2ccco2)C(Cl)=N1 | no (0)
2. Cc1ccc(C(=O)/C=C(\O)C(=O)NN=C(c2ccccc2)c2ccccc2)cc1 | no (0)
3. Cc1ccc(S(=O)(=O)OCCOCCOCCOCCOCCOS(=O)(=O)c2ccc(C)cc2)cc1 | no (0)
4. COc1ccc(P2(=S)OC(C)(C)C(C)(C)O2)cc1 | no (0)
5. CSC1(C)C(=O)Nc2c(OCc3ccccc3)cc([N+](=O)[O-])cc21 (stereo not drawn) | no (0)
6. COc1cc(OC)c2c(C)cc(=O)oc2c1 | no (0)
7. COc1cc2c(cc1OCc1ccccc1)NC(=O)[C@@H]1CCCN1C2=O | no (0)
8. CN1C2CCC1C(C(O)c1ccccc1[N+](=O)[O-])C(=O)C2 (stereo not drawn) | no (0)
9. COC(=O)C1=C(C(=O)OC)SC(=C2S[C@@H]3[C@@H]4C[C@H]([C@@H]3S2)[C@H]2C(=O)OC(=O)[C@@H]42)S1 | no (0)
10. CC1=C2c3ccccc3N(C(=O)/C=C/C(=O)O)[C@H]2[C@H]2C(=O)OC(=O)[C@H]2C1 | no (0)
11. CCN(CC)CCn1nc2c3c(c(NCCN)ccc31)Sc1cc(O)ccc1-2 | yes (1)
12. CC(C)[C@H]1CO[C@@H]2O[C@H](C)CC(=O)N21 | no (0)
13. COC1OC2COC1(OC)C1OC(C)(C)OC21 (stereo not drawn) | no (0)
14. CCNC1CC(C(C)(C)NCC)CC=C1C (stereo not drawn) | no (0)
15. COc1ccc(-n2c(C)nc3ccc(NC4OC(COC(C)=O)C(OC(C)=O)C(OC(C)=O)C4OC(C)=O)cc3c2=O)cc1 (stereo not drawn) | no (0)
16. CC(C)(C)c1cc(/C=C2/NC(=O)NC2=O)cc(C(C)(C)C)c1O | no (0)
17. CC(=O)OCCn1cnc2nc(Nc3ccccc3)nc(Cl)c21 | no (0)
18. CN(C)CC1CCC/C(=C\c2ccc(OC(=O)c3ccc(Cl)cc3)cc2)C1=O (stereo not drawn) | no (0)
19. OC1C2CCC3C2CC(C(O)(c2ccccc2)c2ccccc2)C13 (stereo not drawn) | no (0)
20. CCOC(=O)c1sc2c(c1O)c(=O)n(-c1ccccc1)c(=S)n2-c1ccccc1 | no (0)
21. CN1CCN(C(=O)CCC(=O)Nc2cc3c(c4ccccc24)-c2ccc4ccccc4c2C3)CC1 | no (0)
22. CCCCCCCCOC1C(O)C(O)C(O)C(O)C12CO2 (stereo not drawn) | no (0)
23. OC1(CCc2ccccc2)COC(C(F)(F)F)(C(F)(F)F)C1 (stereo not drawn) | no (0)
24. NCCCC(N/C=C1/N=C(c2ccccc2)OC1=O)C(=O)O (stereo not drawn) | no (0)
25. CS/C(=N\C#N)S/C=C/C(=O)c1ccc(Cl)cc1 | no (0)
26. CC(C)(C)[C@H]1NC(=O)CN1C(=O)OCc1ccccc1 | no (0)
27. Nc1ccc2cc(S(=O)(=O)O)cc(O)c2c1/N=N/c1ccc(NC(=O)Nc2ccc(/N=N/c3c(N)ccc4cc(S(=O)(=O)O)cc(O)c34)c(S(=O)(=O)O)c2)cc1S(=O)(=O)O | no (0)
28. COC(=O)/C=C\COCC1C2CCC(=O)C21 (stereo not drawn) | no (0)

====

test system: ACHN; test: NCI tumour cell line growth inhibition, 48 h
Active and inactive are the calls of the source. Rule as the data show it: active = GI50 up to about 1.1 µM and inactive = higher.
Recorded endpoint: GI50

1. CCN(CC)CCn1c2ccccc2c(=O)c2c(OC)ccc(OC)c21 | 47.9 µM (inactive)
2. CC1C(c2cc(C(C)(C)C)c(O)c(C(C)(C)C)c2)c2cc3c(cc2OC1N1CCOCC1)OCO3 (stereo not given) | 7.69 µM (inactive)
3. COc1ccc(/C=C/c2cnc3ccccc3n2)cc1OC | > 100 µM (inactive)
4. CC(C)(C)OC(=O)N[C@H]1CCN(C2CCCCC2)C1=O | > 100 µM (inactive)
5. CCCCCCCCCCCCn1[nH]c(C)c(C(=S)SCCCCCCCC)c1=O | 37.6 µM (inactive)

====

test system: CAKI-1; experiment: NCI tumour cell line growth inhibition, 48 h
Calls of active or inactive are those of the source. No stated cut-off is given here; in the data, active = GI50 up to about 1.1 µM and inactive = higher.
Recorded endpoint: GI50

1) Cc1c(/N=N/c2ccccc2)c(C)n(C2OC(CO)C(O)C(O)C2O)c(=S)c1C#N (stereo not given) | 40.2 µM (inactive)
2) CN(C)CC1CCC/C(=C\c2ccccc2)C1=O (stereo not given) | 1.77 µM (inactive)
3) O=C(/C=C/c1ccc(Cl)c(Cl)c1)c1cccc2ccccc12 | 7.36 µM (inactive)
4) O=C1c2ccccc2C(=O)c2[nH]c(=O)c(/C=N/Nc3ccc([N+](=O)[O-])cc3)nc21 | 17.3 µM (inactive)
5) CN(C)CC(CO)(CN(C)C)CN(C)C | > 100 µM (inactive)
6) O=C1OC(c2ccccc2)=N/C1=C\c1ccccc1 | > 100 µM (inactive)
7) Cc1csc(CCC(N)C(=O)O)n1 (stereo not given) | > 100 µM (inactive)
8) CC1CC2(OC2C)C(=O)OC2CCN(C)C/C=C(/COC(=O)C1(C)O)C2=O (stereo not given) | > 100 µM (inactive)
9) CC1=NC(=O)CNN1C1=NNC2(C(=O)N1)c1ccccc1-c1ccccc12 | > 100 µM (inactive)
10) CSC1(C)C(=O)Nc2c(OCc3ccccc3)cc([N+](=O)[O-])cc21 (stereo not given) | 75.3 µM (inactive)
11) Cc1ccc(C)c2c1NC(=O)/C2=N\Nc1ccccc1[N+](=O)[O-] | > 100 µM (inactive)
12) CCOC(=O)CCC(NC(=O)Cc1ccc(Nc2nc3cc(F)c(F)cc3nc2C(=O)OCC)cc1)C(=O)OCC (stereo not given) | > 100 µM (inactive)
13) Cc1ccc(C2(O)c3ccccc3C(=O)N(C)C2(O)c2ccc(C)cc2)cc1 (stereo not given) | 68.1 µM (inactive)
14) C/C(=N\NC(=S)Nc1ccccc1)c1nc2cccnc2[nH]1 | 4.63 µM (inactive)
15) O=C1c2ccccc2C(=O)c2nc3ccc(Cl)cc3cc21 | > 100 µM (inactive)

====

tested on: HCC 2998; test: NCI tumour cell line growth inhibition, 48 h
Active and inactive are the calls of the source. No stated cut-off is given here; in the data, active = GI50 up to about 1.1 µM and inactive = higher.
Recorded endpoint: GI50

1) OCCNCCN1CCN(CCCN2c3ccccc3Sc3ccc(C(F)(F)F)cc32)CC1 | 27.4 µM (inactive)
2) CCO[C@]12C[C@H](OC)[C@@]3(O)CC(C1[C@H]3OCc1ccccc1)C13C4C2[C@H](OC)C1[C@](COC)(CN4CC)[C@H](O)C[C@@H]3OC (some centres undefined) | > 100 µM (inactive)
3) CC1(C)[C@H](C(=O)O)N2C(=O)[C@@H](NS(=O)(=O)c3ccc([N+](=O)[O-])cc3)[C@H]2S1(=O)=O | > 100 µM (inactive)
4) O=C1Oc2ccccc2C(=O)/C1=C\NC(=S)c1ccncc1 | > 100 µM (inactive)

====

tested on: NCI-H226; test: NCI tumour cell line growth inhibition, 48 h
Activity calls are given as the source filed them. Rule as the data show it: active = GI50 up to about 1.1 µM and inactive = higher. *1 amine or outer side, *2 acyl side, *3 side chain or, on linkers, in order; H or OH if unused. Where a SMILES comes first, the peptide text is derived from it. Bridges are numbered along the chain shown (N, C = ends). Roman numbers before positions name the chains, in order. [ ]: non-standard residue; d: D form. Actinocin(9to1) = Cc1c2oc3c(C)ccc(C(=O)[*:1])c3nc-2c(C(=O)[*:2])c(N)c1=O; NMeV = CN[CH](C(=O)O)C(C)C; Sar = CNCC(=O)O
Outcomes: true (1) for active, false (0) for inactive

1) COc1cc(S(=O)(=O)Nc2ccc(-c3csc(N4C(=O)C(Cl)C4c4ccccc4O)n3)cc2)ccc1Cl (configuration not stated) | false (0)
2) Cc1cc(N(CCC#N)CCC#N)ccc1/C=C1\N=C(c2cc([N+](=O)[O-])ccc2Cl)N(NC(=O)c2ccc(/N=C\c3ccc(N(CCC#N)S(C)(=O)=O)cc3C)cc2)C1=O | false (0)
3) N=C(N)NCC(N)C(=O)O (configuration not stated) | false (0)
4) O=C1NC(c2cccc3ccccc23)Nc2ccccc21 (configuration not stated) | true (1)
5) COc1cccc(/C=C2/S/C(=N/Nc3nc(C)c(C(C)=O)s3)NC2=O)c1O | false (0)
6) c1ccc2c(c1)OC(N1CCCC1)c1cnc(N3CCOCC3)nc1-2 (configuration not stated) | false (0)
7) COc1cc(=O)oc(/C=C/C=O)c1C | false (0)
8) COc1cc(OC)c2c(C)cc(=O)oc2c1 | false (0)
9) CN(C(=O)Cc1ccccc1)n1cn[n+](CC(=O)OC(C)(C)C)c1 | false (0)
10) Cc1ccc2[nH]c3c4c5ccccc5nc-4c[nH]c3c2c1 | false (0)
11) Clc1ccc(OC2CCO2)cc1Cl (configuration not stated) | false (0)
12) CC(C)N(C(=O)C1(O)c2ccccc2C=Cc2ccccc21)C(C)C | false (0)
13) Oc1cccc(-c2nc3ccccc3s2)c1 | false (0)
14) O=c1cc(O)c2ccccc2o1 [4-HYDROXYCOUMARINS] | false (0)
15) CC(C)(C)OC(=O)NCCNC(=O)OCc1ccccc1 | false (0)
16) COc1cc2c(cc1OCc1ccccc1)NC(=O)[C@@H]1CCCN1C2=O | false (0)
17) O=c1ccc2ccc(OP(=O)(O)O)cc2o1 | false (0)
18) COC(=O)c1ccccc1C1CN=NC12Cc1c(C)cccc1C2=O (configuration not stated) | false (0)
19) Clc1cccc(/C=c2\nc(-c3ccccc3)n3c2nc2ccccc23)c1 | false (0)
20) Cc1ccc(S(=O)(=O)N/N=C2/C3C(CC2(C)C)C2(C)CCCC3(C)C2O)cc1 (configuration not stated) | false (0)
21) Cc1c2oc3c(C)ccc(C(=O)NC4C(=O)NC(C(C)O)C(=O)N5CCCC5C(=O)N(C)CC(=O)N(C)C(C(C)C)C(=O)OC4C)c3nc-2c(C(=O)NC2C(=O)NC(C(C)O)C(=O)N3CCCC3C(=O)N(C)CC(=O)N(C)C(C(C)C)C(=O)OC2C)c(N)c1=O (configuration not stated) (I: TTP[Sar][NMeV] / II: TTP[Sar][NMeV]; ester I:1-I:C, II:1-II:C; linker I:N-II:N via Actinocin(9to1); configuration not given here) | true (1)
22) COc1nc2c(N3CCCC3)nc(N3CCNCC3)nc2nc1NCc1ccccc1 | false (0)
23) COc1ccc(Nc2nc(N)c(C(=O)c3c[nH]c4ccccc34)s2)cc1 | false (0)
24) CCOC(=O)c1ccc(C(=O)OCC)n1-c1cc2cc(c1)CSCc1cc(cc(-n3c(C(=O)OCC)ccc3C(=O)OCC)c1)CSC2 | false (0)
25) CNC(C)Cc1ccccc1O (configuration not stated) | false (0)
26) CCSC1=N/C(=C\c2ccco2)C(Cl)=N1 | false (0)
27) COc1cc([C@@H]2c3cc4c(cc3[C@@H](Nc3ccc(NC(=O)c5cc(NC(=O)c6cc([N+](=O)[O-])cn6C)cn5C)cc3)[C@H]3COC(=O)[C@H]23)OCO4)cc(OC)c1O | true (1)
